Assay: Vorinostat serum pharmacokinetics, cycle 1
Type: in vivo
Conditions: human, serum, oral, 200 mg, AUCt, Sequential schedule, 200 mg TID, day 9 of cycle 1; mean (St dev)

- compound: "O=C(CCCCCCC(=O)Nc1ccccc1)NO [vorinostat, suberoylanilide hydroxamic acid]"
  AUC(0-t), ng·h/mL: 1090

----------
Assay: Vorinostat serum pharmacokinetics, cycle 1
Format: in vivo
Details: human, serum, oral, 200 mg, t1/2, Sequential schedule, 200 mg TID, day 9 of cycle 1; mean (St dev)

- compound: "O=C(CCCCCCC(=O)Nc1ccccc1)NO [vorinostat, suberoylanilide hydroxamic acid]"
  unit annotation: "h"
  half-life: 1.71

----------
Assay: clinical
Type: in vivo
Conditions: human, plasma, intravenous, 15 mg/m2, AUCinf, Sequential schedule, 15 mg/m^2, Day 1; mean (St dev)

- molecule: "Nc1ncn([C@H]2C[C@H](O)[C@@H](CO)O2)c(=O)n1 [decitabine, 5-aza-2'-deoxycytidine]"
  AUC(0-inf), ng·h/mL: 116

----------
Assay: clinical
Format: in vivo
Details: human, plasma, intravenous, 10 mg/m2, t1/2, Concurrent schedule, 10 mg/m^2, Day 5; mean (St dev)

- smiles notation: "Nc1ncn([C@H]2C[C@H](O)[C@@H](CO)O2)c(=O)n1"
  half-life [min]: 16.2

----------
Assay: clinical
Format: in vivo
Details: human, plasma, intravenous, 10 mg/m2, AUCinf, Concurrent schedule, 10 mg/m^2, Day 1; mean (St dev)

- smiles notation: "Nc1ncn([C@H]2C[C@H](O)[C@@H](CO)O2)c(=O)n1"
  unit annotation: "ng·h/mL"
  AUC(0-inf): 77.6

----------
Test: clinical
Assay type: in vivo
Details: human, plasma, intravenous, 15 mg/m2, CL, Sequential schedule, 15 mg/m^2, Day 5; mean (St dev)
property label: clearance (mL/min)

- compound: "Nc1ncn([C@H]2C[C@H](O)[C@@H](CO)O2)c(=O)n1 [decitabine, 5-aza-2'-deoxycytidine]"
  property label: "clearance"
  quantitative readout: 3930

----------
Assay: clinical
Type: in vivo
Conditions: human, plasma, intravenous, 20 mg/m2, CL, Sequential schedule, 20 mg/m^2, Day 1; mean (St dev)
property label: clearance (mL/min)

- smiles notation: "Nc1ncn([C@H]2C[C@H](O)[C@@H](CO)O2)c(=O)n1"
  property label: "clearance"
  unit annotation: "mL/min"
  quantitative readout: 5280

----------
Experiment: clinical
Format: in vivo
Conditions: human, plasma, intravenous, 15 mg/m2, AUCt, Sequential schedule, 15 mg/m^2, Day 5; mean (St dev)
property label: AUC(0-t) (ng·h/mL)

- compound: "Nc1ncn([C@H]2C[C@H](O)[C@@H](CO)O2)c(=O)n1 [decitabine, 5-aza-2'-deoxycytidine]"
  quantitative readout: 114

----------
Test: Vorinostat serum pharmacokinetics, cycle 1
Assay type: in vivo
Conditions: human, serum, oral, 200 mg, AUCt, Sequential schedule, 200 mg BID, day 9 of cycle 1; mean (St dev)
property label: AUC(0-t) (ng·h/mL)

- compound: "O=C(CCCCCCC(=O)Nc1ccccc1)NO [vorinostat, suberoylanilide hydroxamic acid]"
  property label: "AUC(0-t)"
  quantitative readout: 1020

----------
Experiment: Vorinostat serum pharmacokinetics, cycle 1
Type: in vivo
Conditions: human, serum, oral, 200 mg, AUCinf, Sequential schedule, 200 mg BID, day 9 of cycle 1; mean (St dev)

- compound: "O=C(CCCCCCC(=O)Nc1ccccc1)NO [vorinostat, suberoylanilide hydroxamic acid]"
  AUC(0-inf) [ng·h/mL]: 1180

----------
Test: clinical
Format: in vivo
Conditions: human, plasma, intravenous, 20 mg/m2, AUCinf, Sequential schedule, 20 mg/m^2, Day 5; mean (St dev)

- smiles notation: "Nc1ncn([C@H]2C[C@H](O)[C@@H](CO)O2)c(=O)n1"
  AUC(0-inf), ng·h/mL: 165

----------
Assay: clinical
Assay type: in vivo
Settings: human, plasma, intravenous, 15 mg/m2, Cmax, Sequential schedule, 15 mg/m^2, Day 5; mean (St dev)

- compound: "Nc1ncn([C@H]2C[C@H](O)[C@@H](CO)O2)c(=O)n1 [decitabine, 5-aza-2'-deoxycytidine]"
  Cmax (ng/mL): 142

----------
Test: clinical
Assay type: in vivo
Details: human, plasma, intravenous, 15 mg/m2, CL, Sequential schedule, 15 mg/m^2, Day 1; mean (St dev)
property label: clearance (mL/min)

- compound: "Nc1ncn([C@H]2C[C@H](O)[C@@H](CO)O2)c(=O)n1 [decitabine, 5-aza-2'-deoxycytidine]"
  quantitative readout: 5670

----------
Experiment: clinical
Format: in vivo
Conditions: human, plasma, intravenous, 20 mg/m2, Cmax, Sequential schedule, 20 mg/m^2, Day 1; mean (St dev)

- smiles notation: "Nc1ncn([C@H]2C[C@H](O)[C@@H](CO)O2)c(=O)n1"
  Cmax: "135 ng/mL"

----------
Test: Vorinostat serum pharmacokinetics, cycle 1
Type: in vivo
Conditions: human, serum, oral, 200 mg, AUCinf, Sequential schedule, 200 mg TID, day 9 of cycle 1; mean (St dev)

- compound: "O=C(CCCCCCC(=O)Nc1ccccc1)NO [vorinostat, suberoylanilide hydroxamic acid]"
  AUC(0-inf) / ng·h/mL: 1350

----------
Test: Vorinostat serum pharmacokinetics, cycle 1
Format: in vivo
Conditions: human, serum, oral, 100 mg, t1/2, Sequential schedule, 100 mg BID, day 9 of cycle 1; mean (St dev)

- molecule: "O=C(CCCCCCC(=O)Nc1ccccc1)NO [vorinostat, suberoylanilide hydroxamic acid]"
  unit annotation: "h"
  half-life: 1.39

----------
Assay: Vorinostat serum pharmacokinetics, cycle 1
Format: in vivo
Conditions: human, serum, oral, 200 mg, Cmax, Sequential schedule, 200 mg BID, day 9 of cycle 1; mean (St dev)
property label: Cmax (ng/mL)

- compound: "O=C(CCCCCCC(=O)Nc1ccccc1)NO [vorinostat, suberoylanilide hydroxamic acid]"
  unit annotation: "ng/mL"
  quantitative readout: 313

----------
Test: Vorinostat serum pharmacokinetics, cycle 1
Format: in vivo
Conditions: human, serum, oral, 100 mg, AUCinf, Sequential schedule, 100 mg BID, day 9 of cycle 1; mean (St dev)

- molecule: "O=C(CCCCCCC(=O)Nc1ccccc1)NO [vorinostat, suberoylanilide hydroxamic acid]"
  AUC(0-inf): "446 ng·h/mL"

----------
Test: Vorinostat serum pharmacokinetics, cycle 1
Type: in vivo
Conditions: human, serum, oral, 200 mg, AUCinf, Concurrent schedule, 200 mg BID, day 4 of cycle 1; mean (St dev)

- molecule: "O=C(CCCCCCC(=O)Nc1ccccc1)NO [vorinostat, suberoylanilide hydroxamic acid]"
  unit annotation: "ng·h/mL"
  AUC(0-inf): 708

----------
Assay: Vorinostat serum pharmacokinetics, cycle 1
Assay type: in vivo
Conditions: human, serum, oral, 200 mg, Cmax, Concurrent schedule, 200 mg BID, day 4 of cycle 1; mean (St dev)

- molecule: "O=C(CCCCCCC(=O)Nc1ccccc1)NO [vorinostat, suberoylanilide hydroxamic acid]"
  unit annotation: "ng/mL"
  Cmax: 214

----------
Test: clinical
Format: in vivo
Details: human, plasma, intravenous, 20 mg/m2, t1/2, Sequential schedule, 20 mg/m^2, Day 1; mean (St dev)

- smiles notation: "Nc1ncn([C@H]2C[C@H](O)[C@@H](CO)O2)c(=O)n1"
  half-life, min: 21.6

----------
Assay: clinical
Type: in vivo
Details: human, plasma, intravenous, 10 mg/m2, AUCt, Concurrent schedule, 10 mg/m^2, Day 1; mean (St dev)
property label: AUC(0-t) (ng·h/mL)

- compound: "Nc1ncn([C@H]2C[C@H](O)[C@@H](CO)O2)c(=O)n1 [decitabine, 5-aza-2'-deoxycytidine]"
  property label: "AUC(0-t)"
  quantitative readout: 75.8

----------
Assay: Vorinostat serum pharmacokinetics, cycle 1
Format: in vivo
Conditions: human, serum, oral, 200 mg, AUCt, Concurrent schedule, 200 mg TID, day 4 of cycle 1; mean (St dev)

- compound: "O=C(CCCCCCC(=O)Nc1ccccc1)NO [vorinostat, suberoylanilide hydroxamic acid]"
  AUC(0-t) (ng·h/mL): 883

----------
Test: clinical
Assay type: in vivo
Settings: human, plasma, intravenous, 15 mg/m2, Cmax, Sequential schedule, 15 mg/m^2, Day 1; mean (St dev)

- smiles notation: "Nc1ncn([C@H]2C[C@H](O)[C@@H](CO)O2)c(=O)n1"
  Cmax [ng/mL]: 129

----------
Assay: clinical
Format: in vivo
Conditions: human, plasma, intravenous, 15 mg/m2, t1/2, Sequential schedule, 15 mg/m^2, Day 5; mean (St dev)
property label: half-life

- smiles notation: "Nc1ncn([C@H]2C[C@H](O)[C@@H](CO)O2)c(=O)n1"
  result: "19.8 min"

----------
Test: Vorinostat serum pharmacokinetics, cycle 1
Assay type: in vivo
Settings: human, serum, oral, 200 mg, Cmax, Concurrent schedule, 200 mg TID, day 4 of cycle 1; mean (St dev)
property label: Cmax (ng/mL)

- compound: "O=C(CCCCCCC(=O)Nc1ccccc1)NO [vorinostat, suberoylanilide hydroxamic acid]"
  unit annotation: "ng/mL"
  quantitative readout: 227
